Record type: Ki measurement. Applies to: Voltage-gated inwardly rectifying potassium channel KCNH2 (Homo sapiens, UniProt Q12809)

Chem Smiles	Ki
Cn1cc(-c2ccc(N)c(NC(=O)c3ccc(N4CCC5(CC4)CNC(=O)O5)nc3)c2)cn1	> 10 µM
Nc1ccccc1NC(=O)c1ccc(N2CCC3(CC2)CNC(=O)O3)nc1	> 10 µM
Cn1cnc(-c2ccc(N)c(NC(=O)c3ccc(N4CCC5(CC4)CNC(=O)O5)nc3)c2)c1	> 10 µM
Nc1ccc(-c2ccsc2)cc1NC(=O)c1ccc(N2CCC3(CC2)CNC(=O)O3)nc1	> 30 µM

Taken from ChEMBL document CHEMBL3286368.
